# test protocol: Brain-blood-barrier penetration assay (short oral absorption model, Kp,uu)
# Type: in vivo
# assay conditions: male, Han Wistar, rat, brain and plasma, po, 10 mg/kg, male Han Wistar rats, oral 10 mg/kg in 1% methylcellulose; AUC(brain)/AUC(plasma)×(fu,brain/fu.plasma)
reported metric: Kp uu

molecule=Cc1cc2nccn2cc1Nc1ncc2c(n1)c(C1CCOCC1)nn2C observed=0.14

a: Cc1cc2ncnn2cc1Nc1ncc2c(C)nn(C3CCCOCC3)c2n1 (single isomer, unassigned)
b: CO[C@H]1CC[C@H](c2nn(C)c3cnc(Nc4cn5ncnc5cc4C)nc32)CC1
Higher Kp uu between a and b ? The response must carry the label of the picked entry.
a

P: Cc1cc2ncnn2cc1Nc1ncc2c(C)nn(C3CCC(F)(F)CC3)c2n1
Q: Cc1cc2ncnn2cc1Nc1ncc2c(n1)c(C1CCOCC1)nn2C
Higher Kp uu between P and Q ? The response must carry the label of the picked entry.
Q
(Q: 0.17, P: 0.08)

1: Cc1cc2ncnn2cc1Nc1ncc2c(C)nn([C@@H]3C[C@H]4CC[C@@H](C3)O4)c2n1
2: Cc1cc2ncnn2cc1Nc1ncc2c(C)nn([C@H]3C[C@H]4CC[C@@H](C3)O4)c2n1
3: CO[C@H]1CC[C@H](n2nc(C)c3cnc(Nc4cn5ncnc5cc4C)nc32)CC1
# rank_down: sort by Kp uu, max first Submit the labels in the order that the ranking request calls for.
1, 2, 3
(1: 0.3, 2: 0.19, 3: 0.1)

---

# Tested on: Rat hepatocyte
# test protocol: Metabolic stability assay (rat hepatocyte Clint)
# Assay type: in vitro ADME
# assay conditions: 1 μM compound, cryopreserved hepatocytes 1 million cells per mL
reported metric: Rat hepatocyte CLint (μl/min/10^−6 cells)

structure_smiles=Cc1cc2ncnn2cc1Nc1ncc2c(C)nn([C@H]3C[C@H](C)C3)c2n1 test_target="Rat hepatocyte" unit_name="μl/min/10^−6 cells" observed=153.3
structure_smiles=Cc1cc2ncnn2cc1Nc1ncc2c(n1)c(C1CCC(F)(F)CC1)nn2C test_target="Rat hepatocyte" unit_name="μl/min/10^−6 cells" observed=11.3
structure_smiles=CO[C@H]1CC[C@@H](n2nc(C)c3cnc(Nc4cn5ncnc5cc4C)nc32)CC1 test_target="Rat hepatocyte" unit_name="μl/min/10^−6 cells" observed=17.7

a: Cc1cc2ncnn2cc1Nc1ncc2c(C)nn(C3CCC3)c2n1
b: Cc1cc2nccn2cc1Nc1ncc2c(n1)c(C1=CCOCC1)nn2C
Higher Rat hepatocyte CLint (μl/min/10^−6 cells) between a and b ? The response must carry the label of the picked entry.
a

---

# test protocol: Metabolic stability assay (human microsomal Clint)
# Type: in vitro ADME
# assay conditions: human, pooled human liver microsomes, pH 7.4, 1 μM compound, 1 mg/mL microsomes, 1 mM NADPH, 37° C.
reported metric: microsomal CLint at 1 μM (µL/min/mg)

Please review the following examples before continuing.
molecule=CO[C@H]1CC[C@H](n2nc(C)c3cnc(Nc4cn5ncnc5cc4C)nc32)CC1 reported_metric="microsomal CLint at 1 μM" observed=72.3
molecule="Cc1cc2ncnn2cc1Nc1ncc2c(C)nn(C3CCCOC3)c2n1 (single isomer, unassigned)" reported_metric="microsomal CLint at 1 μM" observed=24.5
molecule=Cc1cc2ncnn2cc1Nc1ncc2c(C)nn(CC3CCC3)c2n1 reported_metric="microsomal CLint at 1 μM" observed=105
molecule=Cc1cc2ncnn2cc1Nc1ncc2c(n1)c([C@H]1CC[C@H](OC(F)F)CC1)nn2C reported_metric="microsomal CLint at 1 μM" observed=109
molecule=Cc1cc2ncnn2cc1Nc1ncc2c(C)nn(C3CC4(CCC4)C3)c2n1 reported_metric="microsomal CLint at 1 μM" observed=173

I: COc1cc(C)c(Nc2ncc3c(C)nn(C4CCOCC4)c3n2)cn1
II: Cc1cc2ncnn2cc1Nc1ncc2c(C)nn([C@H]3C[C@@H](C)C3)c2n1
III: Cc1cc2ncnn2cc1Nc1ncc2c(C)nn(CCC#N)c2n1
IV: COCCCn1nc(C)c2cnc(Nc3cn4ncnc4cc3C)nc21
V: Cc1cc2ncnn2cc1Nc1ncc2c(C)nn(C3CCOC(C)C3)c2n1 (single isomer, unassigned)
# rank_down: sort by microsomal CLint at 1 μM, max first Submit the labels in the order that the ranking request calls for.
II, V, IV, I, III

1: Cc1cc2nccn2cc1Nc1ncc2c(n1)c(C1=CCOCC1)nn2C
2: Cc1cc2ncnn2cc1Nc1ncc2c(C)nn([C@H]3C[C@H]4CC[C@@H](C3)O4)c2n1
3: Cc1cc2nccn2cc1Nc1ncc2c(C)nn(C3CCC(F)(F)CC3)c2n1
4: COCCn1nc(C)c2cnc(Nc3cn4ncnc4cc3C)nc21
Rank the items in ascending order with respect to microsomal CLint at 1 μM. Submit the labels in the order that the ranking request calls for.
4, 1, 2, 3

P: Cc1cc2ncnn2cc1Nc1ncc2c(C)nn(C3CCC3)c2n1
Q: Cc1cc2ncnn2cc1Nc1ncc2c(C)nn(C3CCCCC3)c2n1
Higher microsomal CLint at 1 μM between P and Q ? The response must carry the label of the picked entry.
Q

---

# Tested on: Rat hepatocyte
# test protocol: Metabolic stability assay (rat hepatocyte Clint)
# Assay type: in vitro ADME
# assay conditions: 1 μM compound, cryopreserved hepatocytes 1 million cells per mL
reported metric: Rat hepatocyte CLint (μl/min/10^−6 cells)

Please review the following examples before continuing.
compound=Cc1cc2ncnn2cc1Nc1ncc2c(C)nn(C3CC4(CCC4)C3)c2n1 unit_name="μl/min/10^−6 cells" observed=16.9
compound=[2H]C([2H])([2H])n1nc(C2CCOCC2)c2nc(Nc3cn4ncnc4cc3C)ncc21 unit_name="μl/min/10^−6 cells" observed=6.8
compound="Cc1cc2ncnn2cc1Nc1ncc2c(C)nn(C3CCOCC3C)c2n1 (single isomer, unassigned) [Example 114]" unit_name="μl/min/10^−6 cells" observed=8.5
compound=Cc1cc2ncnn2cc1Nc1ncc2c(C)nn(CCCOC(F)(F)F)c2n1 unit_name="μl/min/10^−6 cells" observed=15.3
compound=COc1cc(C)c(Nc2ncc3c(C)nn(C4CCOCC4)c3n2)cn1 unit_name="μl/min/10^−6 cells" observed=9.6

a: Cc1cc2ncnn2cc1Nc1ncc2c(n1)c(C1CCOCC1)nn2C
b: Cc1cc2ncnn2cc1Nc1ncc2c(C)nn([C@H]3CC[C@@H](F)CC3)c2n1
Higher Rat hepatocyte CLint (μl/min/10^−6 cells) between a and b ? The response must carry the label of the picked entry.
b
(b: 10.8 μl/min/10^−6 cells, a: 5.4 μl/min/10^−6 cells)

---

# Tested on: MDR1, BCRP
# test protocol: MDCKII-MDR1-BCRP efflux assay
# Assay type: in vitro ADME
# assay conditions: dog, pH 7.4, 5 μM compound, HBSS pH 7.4, read-out: MDCK-Mdr1-BCRP efflux ratio
reported metric: efflux ratio at 120 min, 5 μM

Please review the following examples before continuing.
compound="Cc1cc2ncnn2cc1Nc1ncc2c(C)nn(CC3CC3)c2n1 [Example 38]" observed=1.4
compound="Cc1nn(C2CCOCC2)c2nc(Nc3cn4ncnc4cc3Cl)ncc12 [Example 16]" observed=0.8
compound="Cc1cc2ncnn2cc1Nc1ncc2c(C)nn(C3CCC(F)(F)CC3)c2n1 [Example 21]" observed=1.3
compound="Cc1cc2ncnn2cc1Nc1ncc2c(n1)c(C1CCC(F)(F)CC1)nn2C [Example 9]" observed=1.3
compound="Cc1cc2ncnn2cc1Nc1ncc2c(C)nn(C3CCOC(C)(C)C3)c2n1 (single isomer, unassigned) [Example 116]" observed=2
compound="Cc1cc2ncnn2cc1Nc1ncc2c(C)nn(C3CC4(COC4)C3)c2n1 [Example 42]" observed=4.8
compound="Cc1cc2ncnn2cc1Nc1ncc2c(C)nn(CCC#N)c2n1 [Example 72]" observed=7.5
compound="Cc1cc2ncnn2cc1Nc1ncc2c(C)nn(C3CCCOC3)c2n1 (single isomer, unassigned) [Example 29]" observed=1.6

I: Cc1cc2ncnn2cc1Nc1ncc2c(n1)c([C@H]1CC[C@@H](OC(F)F)CC1)nn2C [Example 11]
II: Cc1cc2ncnn2cc1Nc1ncc2c(C)nn(C3CCC(OC(F)F)CC3)c2n1 (stereo not drawn) [Example 23]
Higher efflux ratio at 120 min, 5 μM between I and II ? The response must carry the label of the picked entry.
I
(I: 1.8, II: 0.9)

A: Cc1cc2nccn2cc1Nc1ncc2c(n1)c(C1CCOCC1)nn2C [Example 2]
B: Cc1cc2ncnn2cc1Nc1ncc2c(n1)c([C@H]1CC[C@H](OC(F)F)CC1)nn2C [Example 12]
Hi! Which is lower in terms of efflux ratio at 120 min, 5 μM, the first one A or the second one B ? The response must carry the label of the picked entry.
B
(B: 2.1, A: 3.3)

1: Cc1cc2ncnn2cc1Nc1ncc2c(C)nn([C@@H]3C[C@H]4CC[C@@H](C3)O4)c2n1 [Example 107]
2: Cc1cc2ncnn2cc1Nc1ncc2c(C)cn(C3CCOCC3)c2n1 [Example 15]
3: Cc1cc2ncnn2cc1Nc1ncc2c(C)nn(CC(F)F)c2n1 [Example 57]
Rank the items in ascending order with respect to efflux ratio at 120 min, 5 μM. Submit the labels in the order that the ranking request calls for.
2, 3, 1
(2: 0.8, 3: 1.6, 1: 2.7)
